System: HOP-92 NSCLC
Assay: NCI-60 one-dose screen, 48 h (100 = growth as untreated, 0 = no growth, -100 = all killed)
Conditions: 10 µM unless noted
This is part of a sample that, as a whole, favours compounds with a hit. Of some 83,000 tested, about 20% had one in any assay.
Entries whose growth is below 40% take 1; entries at or above 40% take -1.

Take the compound "Cc1ccc(S(=O)(=O)n2cc(-c3csc(-c4cn(C)c5ncccc45)n3)c3ccccc32)cc1" and say whether its growth is less than 40%. 1

Does the reported growth of the following compound sit strictly below 40%? "COc1ccc2nc3cc(Cl)ccc3c(N3CCN(c4ccnc(N5CCOCC5)n4)CC3)c2c1" -1

Criterion: growth strictly below 40%. Is it met by "O=c1[nH]c(-c2ccccn2)nc2sc3c(c12)CCCCC3" ? -1

Regarding C=C1CC2(OC1=O)C(=O)N(CCCCCCCCCCCCN1C(=O)C3(CC(=C)C(=O)O3)c3ccccc31)c1ccccc12 (stereo not given) , kindly confirm whether its growth is beneath 40%. -1

# check: growth < 40% for "O=C(O)c1ccc2c(c1Sc1ccccc1)C(=O)c1ccccc1C2=O" -1

====

Tested on: IGROV1 ovarian
Assay: NCI-60 one-dose screen, 48 h
Settings: 10 µM unless noted
The panel holds about 83,000 compounds, 20% with a hit somewhere; the sample as a whole holds those more often. The source made the active and inactive calls. Rule for the calls: active = growth percent below 10; inactive = the rest.
Respond using exactly one of the listed classes: active, inactive

Use these answered entries as a reference point.
                                   compound          target     label
0       COc1ccc(/C=C2\N=C3SC=C(N)N3C2=O)cc1  IGROV1 ovarian    active
1  CC(=O)C1=C(O)C=C2Oc3c(C(=O)/C=C/c4c(Cl)cccc4Cl)c(O)c(C)c(O)c3[C@]2(C)C1=O  IGROV1 ovarian    active
2  COc1ccc(OCC(=O)Nc2ccc(-c3nc4ccccc4s3)cc2C)cc1  IGROV1 ovarian  inactive

Tell me the assay call for "Cc1cc(Nc2nc(N3CCNCC3)nc3ccccc23)n[nH]1" please. inactive

What call does the record list for "O=C(C[C@@H](C(=O)NCc1cccc(C(F)(F)F)c1)N1C(=O)[C@@H](N2C(=O)OC[C@@H]2c2ccccc2)[C@H]1/C=C/c1ccccc1)NC1CCN(Cc2ccccc2)CC1" ? inactive

Hi, do you know how "CC#CC#Cc1cccc(=O)o1" came out in this test? inactive

Look up the recorded call for "COc1cc(/C=C2\CN(C(=O)CCN3CCC(=NO)CC3)C/C(=C\c3cc(OC)c(OC)c(OC)c3)C2=O)cc(OC)c1OC" in this test. active

Look up the recorded call for "Cc1cc(OCc2ccc(C(F)(F)F)cc2)c2c(c1)C(=O)C=C(NCCN1CCCC1)C2=O" in this test. inactive

Recorded test outcome, item "Cc1ccc2c(c1)n([O-])c1cc(Cl)ccc1[n+]2=O" inactive

So what was the verdict on CSc1ncnc2c1ncn2C1CCCO1 (stereo unspecified) in this test? inactive

Would you mind telling me which call this test gave "O=[N+]([O-])c1c(F)cccc1Nc1cccc(F)c1" ? inactive

Could you kindly confirm the outcome this assay logged for "O=C(O)c1ccccc1Nc1cccc(S(F)(F)(F)(F)F)c1" ? inactive

Could you kindly confirm the outcome this assay logged for "CC1=C(NCCN2CCCC2)C(=O)c2c(OCc3ccc(C(F)(F)F)cc3)cccc2C1=O" ? inactive

Please let me know the test result on file for COc1c(C2CC(=O)Nc3c2cnn3Cc2ccco2)cc2c(c1OC)OCO2 (stereo unspecified) . inactive

Recorded call for "CC/C=C\C[C@H](F)C/C=C1/C(=O)C=C[C@@H]1C/C=C\CCCC(=O)O" ? inactive

Called result for "COc1cc(OC)c(/C=C/C(=O)c2c(OC)cc(OC)cc2OC)c(OC)c1" inactive

# fetch the recorded call for "O=c1c2c3c(sc2n2c(CCl)nnc2n1Cc1ccccc1)CCCC3" here active

// return assay outcome for "CC(C)n1cc2c(N)ncnc2n1" inactive

Hi, sorry to bother you, what did the test record for "O=C1C(=O)N(CCCCn2cc(CO)nn2)c2ccccc21" ? inactive

Please indicate how the test categorized "CCOC(=O)c1cnc2ccc(OC)cc2c1Nc1cccc(S(=O)(=O)NC)c1" . inactive

Status in this test for "Cc1ccc(NC(=O)c2sc3nc4c(cc3c2N)C(=O)CCC4)cc1C" ? inactive
